test system: ATP; test: switch fluorescence ratio, 500 uM ATP over buffer (Cy3 cluster intensity, sum of 5 cycles each) (fold (ratio)); higher = stronger signal-on switching upon ATP binding; sequences stand for … in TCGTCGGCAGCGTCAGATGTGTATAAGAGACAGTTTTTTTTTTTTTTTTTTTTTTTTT…TC; conditions: aptamer strand: ATP DNA aptamer (quencher-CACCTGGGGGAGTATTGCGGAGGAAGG + anchor), 100 nM annealed; ATP concentration: 500 uM;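 also: ATP exposure 15 min at 22 °C before imaging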
# cutoff 1 applies to switch fluorescence ratio; >= gives 1 (yes), < gives 0 (no)

Reference set, count: 6
{"columns": ["chain", "qualitative-label"],
 "data": [
  ["GATCGTCTGC", "0 (no)"],
  ["AATGGGGAAT", "1 (yes)"],
  ["CAATACAGTC", "1 (yes)"],
  ["GATGTCTGGG", "0 (no)"],
  ["GAACGAACGG", "1 (yes)"],
  ["CAATCAGGAC", "1 (yes)"]
]}

Task item: Does the sequence "TTCCCGGGGT" have recorded switch fluorescence ratio that is 1 or more?
Reply: 1 (yes)

Task item: Given the entry "TGTACTTCTT" , answer whether its switch fluorescence ratio meets or surpasses 1.
Reply: 1 (yes)

Task item: Could you verify whether the entry "CTGAGCTGCA" shows switch fluorescence ratio of no less than 1?
Reply: 1 (yes)

Task item: In plain terms: is recorded switch fluorescence ratio at least 1 for "TTGACGCTAA" ?
Reply: 1 (yes)

Task item: Please tell me: is the sequence "ACCTAAAATA" at or over 1 in terms of switch fluorescence ratio?
Reply: 1 (yes)

Task item: Given the entry "AAACTGATGC" , answer whether its switch fluorescence ratio meets or surpasses 1.
Reply: 1 (yes)

Task item: Check this sequence for switch fluorescence ratio at or above 1: "TCCTCAGTGC"
Reply: 1 (yes)
